Numbers sourced from patent US4226610A.

Test system: manna grass
Test Details: Experiment 1 foliar application to naturally growing weeds; also: key: -: no reproduction, namely complete suppression of reproduction; ±: remarkable suppression of reproduction; +: considerable suppression of reproduction; ++: medium supprestion of reproduction; +++: no suppression of reproduction
Format: in vivo, Digitaria adsceudes Henr.
Protocol Conditions: 0.1%; 2 months
Recorded Endpoint: Reproduction-inhibiting effect

• CP(=O)(O)CC[C@H](N)C(=O)O [L-AMPB choline] = -
• C[C@H](NC(=O)[C@H](C)NC(=O)[C@@H](N)CCP(C)(=O)O)C(=O)O [(L-2-Amino-4-methylphosphinobutyryl)-L-alanyl-L-alanine mono] = ++
• CP(=O)(O)CC[C@H](N)C(=O)O [L-2-Amino-4-methylphosphinobutanoic acid monodiethanolammoni] = -

###

Test system: kiichigo
Test Details: Experiment 3 foliar application to naturally growing shrubs; also: key: -: no reproduction, namely complete suppression of reproduction; ±: remarkable suppression of reproduction; +: considerable suppression of reproduction; ++: medium supprestion of reproduction; +++: no suppression of reproduction
Assay type: in vivo, Rubus palmatsu Thunb. forma coptophyllus Makino
Protocol Conditions: 0.1%; after 3 months
Recorded Endpoint: Reproduction-inhibiting

- O=C([O-])C(F)(F)C(F)F.[Na+] [sodium 2,2,3,3-tetrafluoropropionate]: +++
- O=C(O)CNCP(=O)(O)O [Glyphosate, N-phosphonomethylglycine]: +++
- C[C@H](NC(=O)[C@H](C)NC(=O)[C@@H](N)CCP(C)(=O)O)C(=O)O [SF-1293 choline]: -
- CP(=O)(O)CC[C@H](N)C(=O)O [L-2-Amino-4-methylphosphinobutanoic acid monodiethanolammoni]: -
